Procedure text: Pharmacokinetics and oral bioavailability in the mouse
Format: in vivo
Condition: male, Balb, Nu/Nu, plasma, IV bolus 10 mg/kg, mean, read-out: CL (IV bolus)
Observed property: clearance (mL/min/kg)

NC(=O)c1cccc2[nH]n(C3CCN(C4CCCCC4)CC3)c(=O)c12 [Compound 3]	17.8
Cn1c2cccc(C(N)=O)c2c(=O)n1C1CCN(C2CCCCC2)CC1 [Compound 5]	41
Cn1c2cc(F)cc(C(N)=O)c2c(=O)n1C1CCN(C2CCCCC2)CC1 [Compound 22]	38.7
Cn1c2cccc(C(N)=O)c2c(=O)n1C1CCN(CC2CC=CCC2)CC1 (centres unmarked) [Compound 65]	53.8
Cn1c2cccc(C(N)=O)c2c(=O)n1C1CCN(C2CCC(F)(F)CC2)CC1 [Compound 6]	52.7

* * *

Target or system: PARP-3 (Homo sapiens (Human))
Sequence (Q9Y6F1 whole entry): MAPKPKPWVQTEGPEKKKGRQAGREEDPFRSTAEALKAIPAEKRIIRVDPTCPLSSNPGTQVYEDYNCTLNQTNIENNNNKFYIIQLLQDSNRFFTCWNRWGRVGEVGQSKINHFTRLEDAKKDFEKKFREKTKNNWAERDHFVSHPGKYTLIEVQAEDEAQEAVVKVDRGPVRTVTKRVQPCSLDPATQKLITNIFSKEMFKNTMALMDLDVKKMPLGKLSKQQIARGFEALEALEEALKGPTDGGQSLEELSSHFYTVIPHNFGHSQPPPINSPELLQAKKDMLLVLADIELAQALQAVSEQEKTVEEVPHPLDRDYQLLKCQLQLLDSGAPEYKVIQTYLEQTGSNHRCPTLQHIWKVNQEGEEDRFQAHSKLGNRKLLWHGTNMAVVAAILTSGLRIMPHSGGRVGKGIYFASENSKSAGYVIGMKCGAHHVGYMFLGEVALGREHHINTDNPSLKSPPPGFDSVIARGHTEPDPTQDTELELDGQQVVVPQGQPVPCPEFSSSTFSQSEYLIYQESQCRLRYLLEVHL
Condition: read-out: PARP-3 (DC50 μM); probe P1
Observed property: DC50 (µM)

Cn1c2cccc(C(N)=O)c2c(=O)n1C1CCN(C2CCCCC2)CC1	2.15
CN1CCC(n2[nH]c3cccc(C(N)=O)c3c2=O)CC1	2.75

(1) Cn1c2cccc(C(N)=O)c2c(=O)n1C1CCN(C2CCC(F)(F)CC2)CC1
(2) NC(=O)c1cccc2[nH]n(C3CCNCC3)c(=O)c12
**Query** # return whichever of 1 and 2 has the smaller DC50 When you have decided, please share the label of that item.
**Result** 2

* * *

Procedure text: Pharmacokinetics and oral bioavailability in the mouse
Assay type: in vivo
Condition: male, Balb, Nu/Nu, plasma, oral 10 mg/kg, mean, read-out: T½ (oral) (converted)
Observed property: half-life (h)

Consider the following illustrative entries.
Cn1c2cccc(C(N)=O)c2c(=O)n1C1CCN(C2CCCCC2)CC1 [Compound 5]	1.89
Cn1c2cccc(C(N)=O)c2c(=O)n1C1CCN(CC2CC=CCC2)CC1 (centres unmarked) [Compound 65]	1.16
NC(=O)c1cccc2[nH]n(C3CCN(C4CCCCC4)CC3)c(=O)c12 [Compound 3]	1.77

(a) Cn1c2cccc(C(N)=O)c2c(=O)n1C1CCN(C2CCC(F)(F)CC2)CC1 [Compound 6]
(b) Cn1c2cc(F)cc(C(N)=O)c2c(=O)n1C1CCN(C2CCCCC2)CC1 [Compound 22]
**Query** Returns: the argument ( a or b ) having the larger half-life. Lab log: write the label of the selected item as the result.
**Result** b
(b: 2.25 h, a: 1.13 h)

* * *

Procedure text: Pharmacokinetics and oral bioavailability in the mouse
Format: in vivo
Condition: male, Balb, Nu/Nu, plasma, oral 10 mg/kg, mean
Observed property: AUC (µM·h)

Worked set:
Cn1c2cccc(C(N)=O)c2c(=O)n1C1CCN(CC2CC=CCC2)CC1 (centres unmarked)	4.06
NC(=O)c1cccc2[nH]n(C3CCN(C4CCCCC4)CC3)c(=O)c12	14.3
Cn1c2cc(F)cc(C(N)=O)c2c(=O)n1C1CCN(C2CCCCC2)CC1	12.8

(a) Cn1c2cccc(C(N)=O)c2c(=O)n1C1CCN(C2CCCCC2)CC1
(b) Cn1c2cccc(C(N)=O)c2c(=O)n1C1CCN(C2CCC(F)(F)CC2)CC1
**Query** Which shows the larger AUC value: a or b ? Output the label that corresponds to your choice.
**Result** a
